The measured values listed here are drawn from PubChem BioAssay AID489002.

target.system: ATP-dependent translocase ABCB1 (Homo sapiens) (UniProt P08183)
Sequence (P08183 whole entry, looked up): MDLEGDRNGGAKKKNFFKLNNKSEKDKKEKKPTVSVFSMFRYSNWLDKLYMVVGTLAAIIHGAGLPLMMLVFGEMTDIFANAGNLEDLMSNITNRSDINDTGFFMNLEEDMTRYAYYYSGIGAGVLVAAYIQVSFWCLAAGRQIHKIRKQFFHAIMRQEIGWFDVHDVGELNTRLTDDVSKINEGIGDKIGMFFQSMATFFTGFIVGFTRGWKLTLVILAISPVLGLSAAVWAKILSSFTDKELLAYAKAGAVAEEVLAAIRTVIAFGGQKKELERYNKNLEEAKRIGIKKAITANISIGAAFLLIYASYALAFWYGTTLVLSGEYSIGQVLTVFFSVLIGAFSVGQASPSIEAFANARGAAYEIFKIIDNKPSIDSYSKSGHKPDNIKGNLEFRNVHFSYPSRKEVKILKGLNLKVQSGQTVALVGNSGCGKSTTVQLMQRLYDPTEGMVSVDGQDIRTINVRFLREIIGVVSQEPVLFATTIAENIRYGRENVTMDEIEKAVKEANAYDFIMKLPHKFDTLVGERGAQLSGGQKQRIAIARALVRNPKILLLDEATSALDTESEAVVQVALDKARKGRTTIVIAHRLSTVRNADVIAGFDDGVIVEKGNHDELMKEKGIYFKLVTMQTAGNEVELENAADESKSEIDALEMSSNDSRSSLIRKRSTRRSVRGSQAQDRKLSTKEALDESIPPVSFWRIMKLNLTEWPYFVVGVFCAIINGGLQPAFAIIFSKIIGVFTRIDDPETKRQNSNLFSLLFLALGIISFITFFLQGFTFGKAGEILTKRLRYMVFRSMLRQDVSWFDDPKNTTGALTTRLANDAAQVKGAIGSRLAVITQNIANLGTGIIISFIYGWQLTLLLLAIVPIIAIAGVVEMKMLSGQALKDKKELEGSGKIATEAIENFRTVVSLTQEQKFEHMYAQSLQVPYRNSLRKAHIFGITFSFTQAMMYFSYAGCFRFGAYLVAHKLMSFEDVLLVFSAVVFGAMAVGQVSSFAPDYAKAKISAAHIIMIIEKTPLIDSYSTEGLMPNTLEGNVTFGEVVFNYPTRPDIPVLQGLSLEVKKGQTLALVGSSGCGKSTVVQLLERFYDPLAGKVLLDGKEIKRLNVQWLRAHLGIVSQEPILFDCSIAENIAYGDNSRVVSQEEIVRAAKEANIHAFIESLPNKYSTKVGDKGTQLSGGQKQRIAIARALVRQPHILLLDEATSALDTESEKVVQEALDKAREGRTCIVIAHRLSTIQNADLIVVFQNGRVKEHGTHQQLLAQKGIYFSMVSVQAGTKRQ
assay.info: ABCB1 efflux inhibition concentration-response, dose response, Jurkat-DNR cells, JC-1, flow cytometry, follow-up (AID 489002)
measurement.context: JC-1 efflux
Each entry below carries its recorded EC50.
metric.name: EC50

mol=COc1ccc(-c2cc3nc(C)c(C)c(N4CCN(C(=O)c5ccoc5)CC4)n3n2)cc1 metric_name=EC50 val="4.08 µM"
mol=COc1cccc(-c2cc3nc(-c4cccc(C#N)c4)cc(N4CCN(C(=O)c5ccoc5)CC4)n3n2)c1 metric_name=EC50 val="2.34 µM"
mol=O=C(c1ccoc1)N1CCN(c2cc(-c3cccc(F)c3)nc3cc(-c4cccc(Cl)c4)nn23)CC1 metric_name=EC50 val="6.45 µM"

====

target.system: ATP-dependent translocase ABCB1 (Homo sapiens) (UniProt P08183)
assay.info: ABCB1 efflux inhibition concentration-response, dose response, Jurkat-DNR cells, JC-1, flow cytometry, follow-up (AID 489002)
measurement.context: JC-1 efflux
Active and inactive are the calls of the source.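 Rule for the calls: active = combined score above 52 from an acceptable curve fit, favoring EC50 below 10 µM and curve height over 20%; inactive = the rest.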
metric.name: EC50

compound=CN(CCCN(C)c1cc(-c2ccco2)nc2cc(-c3ccccc3)nn12)C(=O)c1ccoc1 target_system="ATP-dependent translocase ABCB1 (Homo sapiens) (UniProt P08183)" val=inactive
compound=COc1ccc(-c2cc3nc(-c4ccco4)cc(N4CCN(C(=O)c5ccoc5)CC4)n3n2)cc1 target_system="ATP-dependent translocase ABCB1 (Homo sapiens) (UniProt P08183)" val="4.86 µM"
compound=O=C(c1ccoc1)N1CCN(c2cc(-c3ccccc3F)nc3cc(-c4ccccc4)nn23)CC1 target_system="ATP-dependent translocase ABCB1 (Homo sapiens) (UniProt P08183)" val="10.5 µM"
compound=COc1cccc(-c2cc3nc(C)cc(N4CCN(C(=O)c5ccoc5)CC4)n3n2)c1 target_system="ATP-dependent translocase ABCB1 (Homo sapiens) (UniProt P08183)" val=inactive
compound=COc1cc(OC)cc(-c2cc3nc(C)c(C)c(N4CCN(C(=O)c5ccoc5)CC4)n3n2)c1 target_system="ATP-dependent translocase ABCB1 (Homo sapiens) (UniProt P08183)" val="1.84 µM"
compound=O=C(c1ccoc1)N1CCN(c2cc(-c3ccco3)nc3cc(-c4ccco4)nn23)CC1 target_system="ATP-dependent translocase ABCB1 (Homo sapiens) (UniProt P08183)" val="2.03 µM"
compound=CNCCCN(C)c1cc(-c2ccco2)nc2cc(-c3ccccc3)nn12 target_system="ATP-dependent translocase ABCB1 (Homo sapiens) (UniProt P08183)" val=inactive
compound=O=C(c1ccoc1)N1CCN(c2cc(-c3ccco3)nc3cc(-c4cccc(Cl)c4)nn23)CC1 target_system="ATP-dependent translocase ABCB1 (Homo sapiens) (UniProt P08183)" val=inactive
compound=Cc1nc2cc(-c3cccc(Cl)c3)nn2c(N2CCN(C(=O)c3ccoc3)CC2)c1C target_system="ATP-dependent translocase ABCB1 (Homo sapiens) (UniProt P08183)" val=inactive
compound=COc1cccc(-c2cc3nc(C)c(C)c(N4CCN(C(=O)c5ccco5)CC4)n3n2)c1 target_system="ATP-dependent translocase ABCB1 (Homo sapiens) (UniProt P08183)" val="11.8 µM"
compound=Cc1nc2cc(-c3ccccc3)nn2c(N2CCN(C(=O)c3ccoc3)CC2)c1C target_system="ATP-dependent translocase ABCB1 (Homo sapiens) (UniProt P08183)" val="2.19 µM"
compound=COc1ccccc1-c1cc(N2CCN(C(=O)c3ccoc3)CC2)n2nc(-c3ccccc3)cc2n1 target_system="ATP-dependent translocase ABCB1 (Homo sapiens) (UniProt P08183)" val="15.3 µM"
compound=O=C(OCc1ccccc1)N1CCN(c2cc(-c3ccco3)nc3cc(-c4ccccc4)nn23)CC1 target_system="ATP-dependent translocase ABCB1 (Homo sapiens) (UniProt P08183)" val="3.03 µM"
compound=COc1ccc(-c2[nH]nc3nc(N4CCN(C(=O)c5ccoc5)CC4)cc(C(F)(F)F)c23)cc1 target_system="ATP-dependent translocase ABCB1 (Homo sapiens) (UniProt P08183)" val=inactive
compound=Cc1cc(C(=O)N2CCN(c3cc(-c4ccco4)nc4cc(-c5ccccc5)nn34)CC2)c(C)o1 target_system="ATP-dependent translocase ABCB1 (Homo sapiens) (UniProt P08183)" val="8.68 µM"
compound=COC(=O)c1cccc(-c2cc(N3CCN(C(=O)c4ccoc4)CC3)n3nc(-c4cccc(OC)c4)cc3n2)c1 target_system="ATP-dependent translocase ABCB1 (Homo sapiens) (UniProt P08183)" val="2.97 µM"
compound=Cc1cccc(-c2cc3nc(-c4ccco4)cc(N4CCN(C(=O)c5ccoc5)CC4)n3n2)c1 target_system="ATP-dependent translocase ABCB1 (Homo sapiens) (UniProt P08183)" val=inactive
compound=CC(=O)N1CCN(c2cc(-c3ccco3)nc3cc(-c4cccc(Cl)c4)nn23)CC1 target_system="ATP-dependent translocase ABCB1 (Homo sapiens) (UniProt P08183)" val="3.97 µM"
compound=O=C(c1ccoc1)N1CCN(c2cc(-c3ccco3)nc3cc(-c4cccs4)nn23)CC1 target_system="ATP-dependent translocase ABCB1 (Homo sapiens) (UniProt P08183)" val="9.8 µM"
compound=O=C(c1ccoc1)N1CCN(c2cc(-c3cccc(F)c3)nc3cc(-c4ccccc4)nn23)CC1 target_system="ATP-dependent translocase ABCB1 (Homo sapiens) (UniProt P08183)" val=inactive
compound=O=C(c1ccco1)N1CCN(c2cc(-c3ccco3)nc3cc(-c4ccccc4)nn23)CC1 target_system="ATP-dependent translocase ABCB1 (Homo sapiens) (UniProt P08183)" val="8.53 µM"
compound=Cc1ccc(-c2cc(N3CCN(C(=O)c4ccoc4)CC3)n3nc(-c4ccccc4)cc3n2)o1 target_system="ATP-dependent translocase ABCB1 (Homo sapiens) (UniProt P08183)" val=inactive
compound=O=C(c1ccoc1)N1CCN(c2cc(-c3cccs3)nc3cc(-c4ccccc4)nn23)CC1 target_system="ATP-dependent translocase ABCB1 (Homo sapiens) (UniProt P08183)" val="8.33 µM"
compound=Cc1c(-c2ccco2)nc2cc(-c3ccccc3)nn2c1N1CCN(C(=O)c2ccoc2)CC1 target_system="ATP-dependent translocase ABCB1 (Homo sapiens) (UniProt P08183)" val="6.48 µM"
compound=COc1ccc(-c2cc3nc(-c4ccccc4)cc(N4CCN(C(=O)c5ccoc5)CC4)n3n2)cc1 target_system="ATP-dependent translocase ABCB1 (Homo sapiens) (UniProt P08183)" val="2.05 µM"
compound=COc1cccc(-c2cc3nc(-c4ccccc4)c(C)c(N4CCN(C(=O)c5ccoc5)CC4)n3n2)c1 target_system="ATP-dependent translocase ABCB1 (Homo sapiens) (UniProt P08183)" val="4.77 µM"
compound=O=C(c1ccoc1)N1CCN(c2cc(-c3ccoc3)nc3cc(-c4ccccc4)nn23)CC1 target_system="ATP-dependent translocase ABCB1 (Homo sapiens) (UniProt P08183)" val=inactive
compound=CC(C)(C)c1cc(N2CCN(C(=O)c3ccoc3)CC2)n2nc(-c3ccccc3)cc2n1 target_system="ATP-dependent translocase ABCB1 (Homo sapiens) (UniProt P08183)" val=inactive
compound=O=C(c1ccoc1)N1CCCN(c2cc(-c3ccco3)nc3cc(-c4ccccc4)nn23)C1 target_system="ATP-dependent translocase ABCB1 (Homo sapiens) (UniProt P08183)" val=inactive
compound=Cc1nc2cc(-c3ccc4c(c3)OCO4)nn2c(N2CCN(C(=O)c3ccoc3)CC2)c1C target_system="ATP-dependent translocase ABCB1 (Homo sapiens) (UniProt P08183)" val="1.93 µM"
compound=Cc1occc1C(=O)N1CCN(c2cc(-c3ccco3)nc3cc(-c4ccccc4)nn23)CC1 target_system="ATP-dependent translocase ABCB1 (Homo sapiens) (UniProt P08183)" val="11.8 µM"
compound=O=C(c1ccoc1)N1CCN(c2cc(-c3ccco3)nc3cc(-c4cccc(-c5ccco5)c4)nn23)CC1 target_system="ATP-dependent translocase ABCB1 (Homo sapiens) (UniProt P08183)" val="5.15 µM"
compound=O=C(c1ccsc1)N1CCN(c2cc(-c3ccco3)nc3cc(-c4ccccc4)nn23)CC1 target_system="ATP-dependent translocase ABCB1 (Homo sapiens) (UniProt P08183)" val="5.69 µM"
compound=O=C(c1ccco1)N1CCN(c2c3c(nc4cc(-c5ccc(F)cc5)nn24)CCC3)CC1 target_system="ATP-dependent translocase ABCB1 (Homo sapiens) (UniProt P08183)" val="1.85 µM"
compound=Cc1nc2cc(-c3ccncc3)nn2c(N2CCN(C(=O)c3ccoc3)CC2)c1C target_system="ATP-dependent translocase ABCB1 (Homo sapiens) (UniProt P08183)" val=inactive
compound=COc1cccc(-c2cc3nc(C)c(C)c(N4CCN(C(=O)c5ccoc5)CC4)n3n2)c1 target_system="ATP-dependent translocase ABCB1 (Homo sapiens) (UniProt P08183)" val="12.8 µM"
compound="Cc1cc(N2CCN(C(=O)C3CCCO3)CC2)n2nc(-c3cccc(F)c3)cc2n1 (configuration not stated)" target_system="ATP-dependent translocase ABCB1 (Homo sapiens) (UniProt P08183)" val=inactive
